System: Mouse cortical cell cultures
Test: Fe2+-induced free radical neurotoxicity in cortical cell cultures (LDH release)
Type: cell-based
Settings: comparison with BAS or NBAS
REPORTED_METRIC: Protection against free radical neurotoxicity compared with parent compound

SMILES_STR	VAL
O=C(O)c1cc(NCCCc2ccc([N+](=O)[O-])cc2)ccc1O	more effective than NBAS
O=C(O)c1cc(NCCc2ccc([N+](=O)[O-])cc2)ccc1O	more effective than NBAS
O=C(O)c1cc(NS(=O)(=O)c2ccc([N+](=O)[O-])cc2)ccc1O	weaker than NBAS
O=C(Nc1ccc(O)c(C(=O)O)c1)c1ccc([N+](=O)[O-])cc1	weaker than NBAS
